# target.or.test.system: canine CD3 on canine T cells (canine PBMC) (canine, UniProt P27597 22-202)
# Sequence (P27597 22-202 limits assumed, chain 1 of 3): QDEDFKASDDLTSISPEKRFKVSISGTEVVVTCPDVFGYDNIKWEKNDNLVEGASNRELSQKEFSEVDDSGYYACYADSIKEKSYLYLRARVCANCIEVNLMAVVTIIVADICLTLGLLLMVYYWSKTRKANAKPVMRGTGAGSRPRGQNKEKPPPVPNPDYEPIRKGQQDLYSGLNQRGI
# Sequence (chain, as listed by the source limits assumed, chain 2 of 3): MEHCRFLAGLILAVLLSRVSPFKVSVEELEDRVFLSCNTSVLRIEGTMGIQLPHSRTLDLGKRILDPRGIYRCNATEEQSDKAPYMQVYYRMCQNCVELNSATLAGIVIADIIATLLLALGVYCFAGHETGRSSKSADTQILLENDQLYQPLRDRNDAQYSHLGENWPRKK
# Sequence (chain, as listed by the source limits assumed, chain 3 of 3): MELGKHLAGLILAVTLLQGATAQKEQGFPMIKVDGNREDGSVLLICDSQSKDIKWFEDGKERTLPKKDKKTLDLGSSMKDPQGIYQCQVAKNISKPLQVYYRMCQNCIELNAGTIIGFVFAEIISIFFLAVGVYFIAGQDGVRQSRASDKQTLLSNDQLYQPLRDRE
# assay.overview: cell-based or functional assay
Given measured IFNy Concentration pg/ml, Day 6, IS, output Criterion met if it is greater than or equal to 60 pg/mL and Criterion not met if not.

As a guide, the following entries are already answered.
PMX167 (monospecific anti-canine CD3, canine IgG-B effector function deficient Fc) (antibody, V domains shown) VH: EVKLVESGGDLVKPGGSLRLSCMASGFTLNNYYMSWVRQAPGKGLQWVAYIKSGGSDTSYVDAVKGRFTISRDNAKNTLHLQMNSLRVEDTAVYYCATDGYIWAWGQGTLVTVSS VL: SYVLTQLPSKNVTLKQPAHITCGGDNIGSKSVHWYQQKLGQAPVLIIYYDNSRPTGIPERFSGAKSGNTATLTISGALAEDEADYYCQVWDSSSKAYVFGSGTQLTVL    Criterion met
PMX166 (monospecific anti-canine CD3, canine IgG-B effector function deficient Fc) (antibody, V domains shown) VH: ELTLQESGPGLVKPSQTLSLTCVVSGGSVTSSYFWNWIRQRPGRGLEWMGYWTGSTIYSPAFQGRISITPDTAKNQFSLQLSSMTTEDTAVYYCSREGGSTLGAFAYWGQGTLVTVSS VL: SYVLTQLPSKNVTLKQPAHITCGGDNIGSKSVHWYQQKLGQAPVLIIYYDSSRPTGIPERFSGANSGNTATLTISGALAEDEADYYCQVWDSSAKASVFGGGTHLTVL    Criterion met
PMX163 (monospecific anti-canine CD3, canine IgG-B effector function deficient Fc) (antibody, V domains shown) VH: ELALQESGPGLVRPSQTLSLTCVVSGGSVTRSYYWNWIRQRPGRGLEWMGYWTGTTIYNPAFQGRISITVDTAKNQFSLHLISMTTEDTAVYYCGREGGSSLGAIAYWGQGTRVTVSS VL: SYVLTQLPSKNVTLKQPAHITCGGDNIGSKSVHWYQQKLGQAPVLIIYYDSSRPTGIPERFSGANSGNTATLTISGALAEDEADYYCQVWDSSAKAAVFGGGTHLTVL    Criterion not met

Ask: // inclusive: IFNy Concentration pg/ml, Day 6, IS at least 60 pg/mL? input: PMX159 (monospecific anti-canine CD3, canine IgG-B effector function deficient Fc) (antibody, V domains shown) VH: ELTLQESGPGLVKPSQTLSLTCVVSGGSVTRSYYWNWIRQRPGRGLEWMGYWTGSTIYNPTFQGRISITADTAKSQFSLQLRSMTTEDTAMYFCAREGGKSLGAFAYWGQGTLVTVSS VL: SYVLTQLPSKNVTLKQPAHITCGGDKIGSKNVHWYQQKLGQAPVMIIYYDSSRPTGIPERFSGANSGNTATLTISGALAEDEADYYCQVWDSSAKAAVFGGGTHLTVL
Result: Criterion met

Ask: Please answer likewise for PMX175 (monospecific anti-canine CD3, canine IgG-B effector function deficient Fc) (antibody, V domains shown) VH: ELTLQESGPGLVKPSQTLSLTCVVSGGSVTSTYYWNWIRQRPGRGLEWMGYWTGTTNYNPAFQGRISITADTAKNQFSLQLSSMTTEDTAVYYCAREDLVTVGSGAFNYWGQGTLVTVSS VL: SYVLTQLPSKNVTLKQPAHITCGGDNIGSKSVHWYQQKLGQAPVLIIYYDSSRPTGIPERFSGANSGNTATLTISGALAEDEADYYCQVWDSSATWVFGEGTQLTVL
Result: Criterion not met

Ask: Please answer likewise for PMX191 (monospecific anti-canine CD3, canine IgG-B effector function deficient Fc) (antibody, V domains shown) VH: EVQLVESGGDLVKPAGSLRLSCVASGFTFSDYSMSWVRQGPEKGLQLVAGMNSDGSTTYYTDAVRGRFTISRDNAKNTMYLQMNSLRDEDTAIYYCAKGAAAPDYWGQGTLVTVSS VL: SYELTQPPSVNVTLRETAHITCGGDRIGSKYVQWIQQIPGQAPVVIIYKDNNRPTGIPERFSGANSGNTATLTISGALAEDEADYYCQVGDNYTWVFGEGTQLTVL
Result: Criterion not met

Ask: Please answer likewise for PMX192 (monospecific anti-canine CD3, canine IgG-B effector function deficient Fc) (antibody, V domains shown) VH: EVQLVESGGDLVKPAGSLRLSCVASGFTFSDYSMSWVRQAPEKGLQLVAGINGDGSTTYYTDAVKGRFTISRDNAKNTVYLQMNSLRAEDTAMYYCAKGAGTGDFWGQGTLVTVSS VL: SYELTQPPSVNVTLRETAHITCGGASIGRKYVQWIQQIPGQAPVVIIYKDSNRPTGIPERFSGANSGNTATLTISGALAEDEADYYCQVGDSGAWVFGEGTQLTVL
Result: Criterion met
